# credit: patent US20260008783A1

Reported pIC50 values are given for each entry in this list.
# assayed.system: Follicle Stimulating Hormone Receptor (FSHR) (Homo sapiens, UniProt P23945)
# Construct: HA (N); expressed in transfected cells; host or cells: CHO-K1, transient transfection, pHM6 vector (CMV promoter)
# Sequence (P23945 18-695): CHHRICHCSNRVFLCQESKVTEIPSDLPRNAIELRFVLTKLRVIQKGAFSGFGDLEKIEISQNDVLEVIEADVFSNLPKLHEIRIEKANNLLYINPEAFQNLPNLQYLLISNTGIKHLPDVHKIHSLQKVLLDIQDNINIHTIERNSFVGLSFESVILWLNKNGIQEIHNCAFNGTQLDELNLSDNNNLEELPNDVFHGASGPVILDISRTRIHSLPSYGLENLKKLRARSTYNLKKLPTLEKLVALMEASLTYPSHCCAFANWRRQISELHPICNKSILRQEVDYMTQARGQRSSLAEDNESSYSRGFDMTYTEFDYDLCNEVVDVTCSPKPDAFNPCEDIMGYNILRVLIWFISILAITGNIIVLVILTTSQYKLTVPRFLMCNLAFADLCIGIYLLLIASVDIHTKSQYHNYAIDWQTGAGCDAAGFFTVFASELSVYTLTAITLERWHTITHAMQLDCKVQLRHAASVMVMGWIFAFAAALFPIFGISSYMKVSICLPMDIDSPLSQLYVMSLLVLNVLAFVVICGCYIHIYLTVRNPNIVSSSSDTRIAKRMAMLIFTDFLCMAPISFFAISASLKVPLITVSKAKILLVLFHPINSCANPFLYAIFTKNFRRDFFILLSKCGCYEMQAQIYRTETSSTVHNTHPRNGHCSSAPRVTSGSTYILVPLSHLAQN
# assay.name: HTRF cAMP agonist assay, FSHR, transiently transfected CHO-K1 cells
# Type: cell-based
# assay.conditions: CHO-K1 cells transiently expressing human FSHR, read-out: IC50 FSHR LANCE CAMP
Would you please state pIC50, meaning minus log10 of the concentration in mol/L, as a bare number?

Worked examples, 2 molecules total:
Which pIC50 is listed for `COc1cc2c(cc1OC(C)C)-c1c(c(C(=O)N3CCOCC3(C)C)nn1-c1cc(Cl)cc(Cl)c1)CC2` ?
7.79

# iterate: `COc1cc2ccc3c(C(=O)N(C)C(C)(C)C)nn(-c4cc(Cl)cc(Cl)c4)c3c2cc1-c1cncc(C(N)=O)c1`
7.87

# input for lookup
Which pIC50 is listed for `COc1cc2c(cc1-c1cncc(C(N)=O)c1)-c1c(c(C(=O)N3CCOCC3(C)C)nn1-c1cc(Cl)cc(Cl)c1)SC2` ?
8.17
